assayed-target: T1, human Ly6E, N-terminal gD-tagged, stably expressed on PC3 cells (human, UniProt Q16553 21-101)
T1 construct: GPI-linked protein on cells; also called hu Ly6E; human Ly6E transfected PC3 cells; not shown: N-terminal gD tag of the retroviral vector
T1 sequence: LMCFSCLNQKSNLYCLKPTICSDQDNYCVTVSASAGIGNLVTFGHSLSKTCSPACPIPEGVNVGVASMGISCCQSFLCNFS
procedure-text: cell-based competitive binding on human Ly6E PC3 cells; competitor mouse 9B12
Method: Cell-based Ly6E competitive binding assay—Cultured human Ly6E transfected PC3 cells were harvested with 5 mM EDTA containing PBS. […] The plate was then washed with cold PBS and an anti-mouse IgG Fc specific Ab (Jackson ImmunoReserach; West Grove, Pa.) labeled with sulfo-ruthenium tag was added to the plate as the detection reagent. […] After incubation the plate was washed again, and MSD read buffer (MSD; Gaithersburg, Md.) was added onto the wells. The plate was read with a MSD SectorÒ imager 6000. […]
Response field label takes TRUE when IC50 is strictly below 30 nM and FALSE in all other cases.

{"columns": ["binder", "class-name"],
 "data": [
  ["humanized 9B12 variant v10 (antibody, V domains shown, IgG. k1 graft 43+44 / VH3 graft + 71 + 78; Residue changes derived) VH: EVQLVESGGGLVQPGGSLRLSCAASGFSLTGYSVNWVRQAPGKGLEWVGMIWGDGSTDYNSALKSRFTISKDNSKNTVYLQMNSLRAEDTAVYYCARDYYFNYASWFAYWGQGTLVTVSS VL: DIQMTQSPSSLSASVGDRVTITCSASQGISNYLNWYQQKPGKTVKLLIYYTSNLHSGVPSRFSGSGSGTDFTLTISSLQPEDFATYYCQQYSELPWTFGQGTKVEIK", "FALSE"],
  ["humanized 9B12 variant v17 (antibody, V domains shown, IgG. k1 graft 43+44+71 / VH2 graft + 24 + 49 + 73; Residue change derived) VH: EVQLVESGPALVKPTQTLTLTCTVSGFSLTGYSVNWIRQPPGKALEWLGMIWGDGSTDYNSALKSRLTISKDNSKNQVVLTMTNMDPVDTATYYCARDYYFNYASWFAYWGQGTLVTVSS VL: DIQMTQSPSSLSASVGDRVTITCSASQGISNYLNWYQQKPGKTVKLLIYYTSNLHSGVPSRFSGSGSGTDYTLTISSLQPEDFATYYCQQYSELPWTFGQGTKVEIK", "TRUE"],
  ["humanized 9B12 variant v25 (antibody, V domains shown, IgG. k1 graft + 71 / VH3 graft + 24 + 48 + 67 + 71 + 76 + 78; Residue changes derived) VH: EVQLVESGGGLVQPGGSLRLSCAVSGFSLTGYSVNWVRQAPGKGLEWLGMIWGDGSTDYNSALKSRLTISKDNSKSTVYLQMNSLRAEDTAVYYCARDYYFNYASWFAYWGQGTLVTVSS VL: DIQMTQSPSSLSASVGDRVTITCSASQGISNYLNWYQQKPGKAPKLLIYYTSNLHSGVPSRFSGSGSGTDYTLTISSLQPEDFATYYCQQYSELPWTFGQGTKVEIK", "FALSE"],
  ["humanized 9B12 variant v21 (antibody, V domains shown, IgG. k1 graft + 71 / VH2 graft + 24 + 37 + 49; Residue changes derived) VH: EVQLVESGPALVKPTQTLTLTCTVSGFSLTGYSVNWVRQPPGKALEWLGMIWGDGSTDYNSALKSRLTISKDTSKNQVVLTMTNMDPVDTATYYCARDYYFNYASWFAYWGQGTLVTVSS VL: DIQMTQSPSSLSASVGDRVTITCSASQGISNYLNWYQQKPGKAPKLLIYYTSNLHSGVPSRFSGSGSGTDYTLTISSLQPEDFATYYCQQYSELPWTFGQGTKVEIK", "FALSE"],
  ["humanized 9B12 variant v19 (antibody, V domains shown, IgG. k1 graft 43+44+71 / VH2 graft + 24 + 37 + 49 + 73 + 76; Residue changes derived) VH: EVQLVESGPALVKPTQTLTLTCTVSGFSLTGYSVNWVRQPPGKALEWLGMIWGDGSTDYNSALKSRLTISKDNSKSQVVLTMTNMDPVDTATYYCARDYYFNYASWFAYWGQGTLVTVSS VL: DIQMTQSPSSLSASVGDRVTITCSASQGISNYLNWYQQKPGKTVKLLIYYTSNLHSGVPSRFSGSGSGTDYTLTISSLQPEDFATYYCQQYSELPWTFGQGTKVEIK", "TRUE"]
]}
